Biological target: Neutrophil elastase (Homo sapiens, UniProt P08246)
Sequence (P08246 whole entry): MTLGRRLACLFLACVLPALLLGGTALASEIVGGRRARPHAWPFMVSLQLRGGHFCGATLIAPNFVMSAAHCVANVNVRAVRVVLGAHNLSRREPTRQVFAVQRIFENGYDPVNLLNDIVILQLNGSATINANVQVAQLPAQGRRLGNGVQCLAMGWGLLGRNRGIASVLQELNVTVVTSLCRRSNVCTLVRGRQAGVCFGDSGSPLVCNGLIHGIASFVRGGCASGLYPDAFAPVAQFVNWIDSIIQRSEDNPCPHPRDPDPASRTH
Test: Compound was tested for the enzyme inhibitory activity against Human Leukocyte Elastase (HLE) at 55 uM concentration
Assay Metric: pIC50
Formally, pIC50 is defined as -log10 of the concentration c, with c in mol/L.

So what's the measured pIC50 for this one? "Cc1ccc2c(c1O)C(=O)c1c(O)cc(O)cc1C2=O"
4.68

###

Molecular target: Neutrophil elastase (Homo sapiens)
Test: Compound was tested for the enzyme inhibitory activity against Human Leukocyte Elastase (HLE) at 27 uM concentration
Assay Metric: pIC50
Formally, pIC50 is defined as -log10 of the concentration c, with c in mol/L.

So what's the measured pIC50 for this one? "COc1cc(OC)c2c(c1)C(=O)c1ccc(C)c(O)c1C2=O"
4.89

###

Biological target: Neutrophil elastase (Homo sapiens)
Assay: Compound was tested for the enzyme inhibitory activity against Human Leukocyte Elastase (HLE) at 52 uM concentration
Assay Metric: IC50

So what's the measured IC50 for this one? "CC(=O)Oc1cc(OC(C)=O)c2c(c1)C(=O)c1ccc(C)c(OC(C)=O)c1C2=O"
12 µM

###

Target: Neutrophil elastase (Homo sapiens, UniProt P08246)
Experiment: In vitro inhibition of human leukocyte elastase.
Assay Metric: log10 of IC50 (log10 of the value in µM)
In our notation, the value equals log10 of IC50 in µM.

Solved cases below.
So what's the measured log10 of IC50 for this one? "CCCCCc1ccc2c(c1O)C(=O)c1c(O)cccc1C2=O"
0.59

So what's the measured log10 of IC50 for this one? "COc1cccc2c1C(=O)c1c(ccc(Cc3ccccc3)c1O)C2=O"
0.83

So what's the measured log10 of IC50 for this one? "CCCCCc1ccc2c(c1O)C(=O)c1c(OC)cccc1C2=O"
0.79

So what's the measured log10 of IC50 for this one? "COc1cccc2c1C(=O)c1c(ccc(C)c1O)C2=O"
1.28

***
So what's the measured log10 of IC50 for this one? "CCCCc1ccc2c(c1O)C(=O)c1c(OC)cccc1C2=O"
0.77

So what's the measured log10 of IC50 for this one? "CCCCCCc1ccc2c(c1O)C(=O)c1c(O)cccc1C2=O"
0.62

###

Biological target: Neutrophil elastase (Homo sapiens)
Experiment: Compound was tested for the enzyme inhibitory activity against Human Leukocyte Elastase (HLE) at 53 uM concentration
Assay Metric: pIC50
Formally, pIC50 is defined as -log10 of the concentration c, with c in mol/L.

Notebook: pull reported pIC50 for Neutrophil elastase (Homo sapiens), entry "Cc1cc(O)c2c(c1)C(=O)c1cc(O)cc(O)c1C2=O"
4.28

###

Entries annotated with measured pIC50
Biological target: Neutrophil elastase (Homo sapiens, UniProt P08246)
Test: Compound was tested for the enzyme inhibitory activity against Human Leukocyte elastase
Formally, pIC50 is defined as -log10 of the concentration c, with c in mol/L.

Solved cases below.
So what's the measured pIC50 for this one? "CCCCCCc1ccc2c(c1O)C(=O)c1c(OC)cccc1C2=O"
5.22

So what's the measured pIC50 for this one? "O=C1c2ccccc2C(=O)c2c1ccc(Cc1ccccc1)c2O"
5.18

***
So what's the measured pIC50 for this one? "Cc1ccc2c(c1O)C(=O)c1ccccc1C2=O"
4.96

###

Entries annotated with measured pKi
Target: Neutrophil elastase (Homo sapiens)
Test: HLE-inhibitor (Human Leukocyte Elastase) dissociation constant determined by using Dixon Plot
Formally, pKi is defined as -log10 of the concentration c, with c in mol/L.

Solved cases below.
So what's the measured pKi for this one? "CCCCOC(=O)Oc1cc(C)cc2c1C(=O)c1c(OC(=O)OCCCC)cc(OCCC)cc1C2=O"
6.82

So what's the measured pKi for this one? "CCCCCCc1ccc2c(c1OC(=O)OCCCC)C(=O)c1c(OC(=O)OCCCC)cccc1C2=O"
6.37

So what's the measured pKi for this one? "CCCCOC(=O)Oc1cccc2c1C(=O)c1c(OC(=O)OCCCC)cc(C)cc1C2=O"
5.72

So what's the measured pKi for this one? "CCCCOC(=O)Oc1cccc2c1C(=O)c1c(OC(=O)OCCCC)cccc1C2=O"
5.12

***
So what's the measured pKi for this one? "CCCCOC(=O)Oc1cc(C)cc2c1C(=O)c1c(OC(=O)OCCCC)cc(OC)cc1C2=O"
5.55

###

Target: Neutrophil elastase (Homo sapiens)
Experiment: Compound was tested for the enzyme inhibitory activity against Human Leukocyte Elastase (HLE) at 65 uM concentration
Assay Metric: pIC50
Formally, pIC50 is defined as -log10 of the concentration c, with c in mol/L.

So what's the measured pIC50 for this one? COc1cc(O)c2c(c1)C(=O)c1cc(C)cc(O)c1C2=O [PHYSCION]
5.21

###

Target: Neutrophil elastase (Homo sapiens, UniProt P08246)
Test: In vitro inhibition of human leukocyte elastase.
Entries annotated with measured IC50
// note: answer is a bare numeric in µM

Solved cases below.
So what's the measured IC50 for this one? "CCCCOC(=O)Oc1cccc2c1C(=O)c1c(OC(=O)OCCCC)cc(C)cc1C2=O"
5.1

So what's the measured IC50 for this one? "C=CCc1ccc2c(c1O)C(=O)c1c(OC)cccc1C2=O"
11

So what's the measured IC50 for this one? "CC(C)Cc1ccc2c(c1O)C(=O)c1c(O)cccc1C2=O"
8

***
So what's the measured IC50 for this one? "O=C1c2cccc(O)c2C(=O)c2c1ccc(Cc1ccccc1)c2O"
13

###

Biological target: Neutrophil elastase (Homo sapiens)
Assay: In vitro inhibition of human leukocyte elastase.
Response field label: string, one of label 1 (IC50 strictly below 2 µM) or label 0.

Some entries whose results are on file:
hey, is IC50 for "COc1cccc2c1C(=O)c1c(ccc(CC(C)C)c1O)C2=O" lower than 2 µM or not?
label 0

hey, is IC50 for "CCCCCCc1ccc2c(c1OC(=O)OCCCC)C(=O)c1c(OC(=O)OCCCC)cccc1C2=O" lower than 2 µM or not?
label 0

hey, is IC50 for "CCCCOC(=O)Oc1cc(OC(=O)OCCCC)c2c(c1)C(=O)c1cc(C)cc(OC(=O)OCCCC)c1C2=O" lower than 2 µM or not?
label 1

hey, is IC50 for "CCCCOC(=O)Oc1cccc2c1C(=O)c1c(OC(=O)OCCCC)cccc1C2=O" lower than 2 µM or not?
label 0

Consider now this further compound.
hey, is IC50 for "CCCc1ccc2c(c1O)C(=O)c1c(O)cccc1C2=O" lower than 2 µM or not?
label 0
